assay: in vitro; conditions: human, hela cells, % viability
viability at 28.5 h, 10 µM for assorted molecules
Recorded endpoint: viability at 28.5 h, 10 µM (%)

molecule="O=C(N/N=C/c1ccccc1O)c1cccc(C(=O)N/N=C/c2ccccc2O)n1 [CBK261459]" recorded_endpoint="viability at 28.5 h, 10 µM" measurement_unit=% endpoint_result=111
molecule="CCOC(=O)CCNC(=O)N(CC)Cc1ccccc1 [CBK155228]" recorded_endpoint="viability at 28.5 h, 10 µM" measurement_unit=% endpoint_result=88.7
molecule="COc1ccc(C2=NN(c3ccc([N+](=O)[O-])cc3)C(=O)/C2=C\\NCCN2CCOCC2)cc1 [CBK264563]" recorded_endpoint="viability at 28.5 h, 10 µM" measurement_unit=% endpoint_result=114
molecule="CCOC(=O)c1c(NC(=O)CCN2C(=O)c3cccc4cccc(c34)C2=O)sc2c1CCC2 [CBK262982]" recorded_endpoint="viability at 28.5 h, 10 µM" measurement_unit=% endpoint_result=111
molecule="CCC(CNC(=O)c1coc(COc2ccc3sc(C)nc3c2)n1)OC (centres unmarked) [CBK307248]" recorded_endpoint="viability at 28.5 h, 10 µM" measurement_unit=% endpoint_result=72.3
molecule="CCCOc1ccc(C(=O)C(CN(CC)CC)Oc2ccccc2)cc1 (centres unmarked) [CBK011944C]" recorded_endpoint="viability at 28.5 h, 10 µM" measurement_unit=% endpoint_result=94.7
molecule="C#CCNCCCOc1ccccc1Oc1ccccc1 [CBK017707C]" recorded_endpoint="viability at 28.5 h, 10 µM" measurement_unit=% endpoint_result=94.2
molecule="CC(C)(C)OC(=O)N1CCCN(Cc2nc(-c3cccnc3)no2)CC1 [CBK305309]" recorded_endpoint="viability at 28.5 h, 10 µM" measurement_unit=% endpoint_result=97.2
molecule="O=C(NC[C@H]1O[C@@H](CC(=O)N2CCN(c3ccccn3)CC2)[C@H](O)[C@@H]1O)c1ccco1 [CBK288923]" recorded_endpoint="viability at 28.5 h, 10 µM" measurement_unit=% endpoint_result=102
molecule="CCOC(=O)N1CCN(S(=O)(=O)c2ccc3[nH]c(=O)oc3c2)CC1 [CBK304679]" recorded_endpoint="viability at 28.5 h, 10 µM" measurement_unit=% endpoint_result=105
molecule="CC(=O)Nc1cccc(CN2CCCC2CN2CCCC2CO)c1 (centres unmarked) [CBK305163]" recorded_endpoint="viability at 28.5 h, 10 µM" measurement_unit=% endpoint_result=98.9
molecule="CCCCOC(=O)CCc1nc2ccccc2nc1O [CBK264523]" recorded_endpoint="viability at 28.5 h, 10 µM" measurement_unit=% endpoint_result=97.3
molecule="NC(=O)CN1CC2(CCN(CCS(=O)(=O)c3ccccc3)CC2)c2ccccc21 [CBK126786]" recorded_endpoint="viability at 28.5 h, 10 µM" measurement_unit=% endpoint_result=103
molecule="CCn1c2ccccc2n2c(SC(C)C(=O)O)nnc12 (centres unmarked) [CBK267079]" recorded_endpoint="viability at 28.5 h, 10 µM" measurement_unit=% endpoint_result=103
molecule="COc1cc(CN2CCN(c3ccccn3)CC2)ccc1OCc1ccccc1 [CBK261906]" recorded_endpoint="viability at 28.5 h, 10 µM" measurement_unit=% endpoint_result=88.8
molecule="Cn1cc([C@@H]2O[C@H](CO)[C@H](O)C2O)c(=O)n(C)c1=O (some centres unmarked) [CBK201191]" recorded_endpoint="viability at 28.5 h, 10 µM" measurement_unit=% endpoint_result=97.1
molecule="Cc1cc(S(=O)(=O)NCc2ccccc2-n2ccnc2)ccc1F [CBK281477]" recorded_endpoint="viability at 28.5 h, 10 µM" measurement_unit=% endpoint_result=92.1
molecule="COc1ccc(/C=C(/NC(=O)/C=C/c2ccccc2)C(=O)O)cc1 [CBK264996]" recorded_endpoint="viability at 28.5 h, 10 µM" measurement_unit=% endpoint_result=94.8
molecule="CC1SC2(C(=O)Nc3ccccc32)N(c2ccc(F)cc2)C1=O (centres unmarked) [CBK093463]" recorded_endpoint="viability at 28.5 h, 10 µM" measurement_unit=% endpoint_result=96.8
molecule="O=C(NCC(c1ccco1)N1CCCC1)C1CCCCC1 (centres unmarked) [CBK304560]" recorded_endpoint="viability at 28.5 h, 10 µM" measurement_unit=% endpoint_result=88.7
molecule="O=C1NN=C(Cc2ccccc2)C1c1ccccc1 (centres unmarked) [CBK067757]" recorded_endpoint="viability at 28.5 h, 10 µM" measurement_unit=% endpoint_result=95.6
molecule="COc1cc2[nH]c(=S)n(C3CCCC3)c(=O)c2cc1OC [CBK288518]" recorded_endpoint="viability at 28.5 h, 10 µM" measurement_unit=% endpoint_result=84.9
molecule="COC(=O)CCn1c(-c2cccnc2C)cc2cccnc21 [CBK282593]" recorded_endpoint="viability at 28.5 h, 10 µM" measurement_unit=% endpoint_result=105
molecule="CCC(C)NC(=O)C1(Cc2cccc(-c3ccc(OC)cc3)c2)CCOCC1 (centres unmarked) [CBK286513]" recorded_endpoint="viability at 28.5 h, 10 µM" measurement_unit=% endpoint_result=94.9
molecule="O=C(Nc1ccc(N2CCNCC2)nc1)c1cccs1 [CBK029430T]" recorded_endpoint="viability at 28.5 h, 10 µM" measurement_unit=% endpoint_result=111
molecule="Cc1c(CNCCN2CCCC2=O)c2ccccc2n1C [CBK281519]" recorded_endpoint="viability at 28.5 h, 10 µM" measurement_unit=% endpoint_result=84.6
molecule="OCCN(Cc1cccnc1)Cc1cccn1-c1ccc(F)cc1 [CBK283023]" recorded_endpoint="viability at 28.5 h, 10 µM" measurement_unit=% endpoint_result=95.9
molecule="CNC(=O)c1sc2ccccc2c1C1CCN(S(=O)(=O)c2ccc(C)c(C)c2)C1 (centres unmarked) [CBK285877]" recorded_endpoint="viability at 28.5 h, 10 µM" measurement_unit=% endpoint_result=85.8
molecule="CCc1cc(NC[C@@H](O)CO)nc(-c2cc(F)c(F)c(F)c2)n1 [CBK132879]" recorded_endpoint="viability at 28.5 h, 10 µM" measurement_unit=% endpoint_result=94.2
molecule="CN1CCN(c2nc(NCCNc3ccc([N+](=O)[O-])cc3)c3ccccc3n2)CC1 [CBK266949]" recorded_endpoint="viability at 28.5 h, 10 µM" measurement_unit=% endpoint_result=77.5
molecule="CCCn1cnnc1CN(C)C(=O)NCCc1nc2ccccc2s1 [CBK307663]" recorded_endpoint="viability at 28.5 h, 10 µM" measurement_unit=% endpoint_result=98.2
molecule="O=C(c1cccc(CN2CCN(c3nc(-c4ccccc4)ns3)CC2)c1)N1CCC(O)CC1 [CBK074709]" recorded_endpoint="viability at 28.5 h, 10 µM" measurement_unit=% endpoint_result=110
molecule="COC(=O)c1c(C)n(CCCNc2ccc([N+](=O)[O-])cc2Cl)c2ccc(O)cc12 [CBK268363]" recorded_endpoint="viability at 28.5 h, 10 µM" measurement_unit=% endpoint_result=86.2
molecule="CC(=O)Nc1ccc(N/C=C(/C#N)c2nc(-c3ccc([N+](=O)[O-])cc3)cs2)cc1 [CBK262377]" recorded_endpoint="viability at 28.5 h, 10 µM" measurement_unit=% endpoint_result=106
molecule="Cc1[nH]nc(C(F)(F)F)c1Cl [CBK025387]" recorded_endpoint="viability at 28.5 h, 10 µM" measurement_unit=% endpoint_result=113
molecule="Cc1cc(C)c(COc2nccnc2OC2CCN(CCCC#N)CC2)c(C)c1 [CBK161575]" recorded_endpoint="viability at 28.5 h, 10 µM" measurement_unit=% endpoint_result=91.6
molecule="CN1C(=O)CC2(C1=O)C(=O)N(CCN1CCCC1=O)c1ccc(F)cc12 (centres unmarked) [CBK075463]" recorded_endpoint="viability at 28.5 h, 10 µM" measurement_unit=% endpoint_result=90.4
molecule="CCc1nc(CC(=O)NC(C)C(O)c2ccc(F)cc2)cs1 (centres unmarked) [CBK304003]" recorded_endpoint="viability at 28.5 h, 10 µM" measurement_unit=% endpoint_result=86.7

---

assay: in vitro; conditions: human, hela cells, % viability
viability at 28.5 h, 10 µM for assorted compounds
Recorded endpoint: viability at 28.5 h, 10 µM (%)

compound="O=c1[nH]c2c(c(=O)[nH]1)[C@H]1[C@H](O)[C@H](O)C[C@H]1[C@@H](c1ccccc1)N2 [CBK303239]" endpoint_result=88.1
compound="CC(=O)Oc1ccccc1C(=O)Oc1ccc2c(c1)c(C(C)=O)c(C)n2-c1ccccc1 [CBK263175]" endpoint_result=89.2
compound="Cc1cc2n(n1)[C@@H](C(F)F)C[C@@H](C1CCN(C(=O)C(C)C)CC1)N2 [CBK284725]" endpoint_result=88
compound="Cc1cnc(NC(=O)Cc2ccc(F)cc2)s1 [CBK288249]" endpoint_result=99.9
compound="Cc1c(C#N)sc(-c2nc[nH]n2)c1C [CBK005952]" endpoint_result=77.6
compound="Cc1cc(CCCC(=O)NCc2ccc(-c3ccc(C(N)=O)c(C)n3)cc2)ccc1F [CBK286016]" endpoint_result=90.3
compound="CN(C(=O)N1CCC(C(=O)NC(c2ccccc2)c2ccco2)CC1)c1ccccc1 (stereo not drawn) [CBK059877]" endpoint_result=89
compound="O=C(CSc1nc2sc3c(c2c(=O)[nH]1)CCCC3)NCCN1CCOCC1 [CBK264064]" endpoint_result=111
compound="CCN(C(=O)CCc1nc2ccccc2n1C)C1CCN(C)CC1 [CBK281994]" endpoint_result=89.9

meta.source: paper PMC12040169
